# System: anti-STh mAb ST:G8
# method_summary: Competitive ELISA with anti-STh antibodies (polyclonal, mAb ST:G8)
# Format: binding
# setup_conditions: polyclonal and monoclonal (ST:G8) anti-STh antibodies
observed_property: binding by anti-STh antibodies

[[record]]
substance = "NTFYCCELCCNPACAGCY [STp]"
observed_property = "binding by anti-STh antibodies"
recorded_result = "bound"

[[record]]
substance = "uroguanylin (NDDCELCVNVACTGCL) [endogenous peptide ligand of the GC-C receptor]"
observed_property = "binding by anti-STh antibodies"
recorded_result = "bound"

[[record]]
substance = "guanylin (PGTCEICAYAACTGC) [endogenous peptide ligand of the GC-C receptor]"
observed_property = "binding by anti-STh antibodies"
recorded_result = "not"

[[record]]
substance = "NSSNYCCELCCNPACTGCY [STh]"
observed_property = "binding by anti-STh antibodies"
recorded_result = "bound"

